Experiment: Single dose PK in healthy subjects (Cohorts 1, 2, S1 and S2), plasma
Type: in vivo, human
Details: human, plasma, iv, 28 mg, 28 mg single IV infusion, healthy subjects; read-out: AUClast Mean
Excerpt: […]
RESULT TYPE: AUC(0-t) (ng·h/mL)
Give your result in ng·h/mL as a bare value.

Name the recorded AUC(0-t) for COC(=O)N1CCC[C@H](NS(C)(=O)=O)[C@@H]1CO[C@H]1CC[C@@H](c2ccccc2)CC1 [Compound A] .
519

====

Assay: Plasma concentrations in healthy subjects (Cohort 4)
Type: in vivo
Settings: human, intravenous, 112 mg, 8 hr, Mean
RESULT TYPE: concentration at 8 h (ng/mL)
Response body: numeric value in ng/mL, unit text excluded.

Please give the measured concentration at 8 h for this compound: COC(=O)N1CCC[C@H](NS(C)(=O)=O)[C@@H]1CO[C@H]1CC[C@@H](c2ccccc2)CC1
177

====

Assay: Single dose PK in healthy subjects (Cohorts 1, 2, S1 and S2), plasma
Type: in vivo, human
Conditions: human, plasma, iv, 112 mg, 112 mg single IV infusion, healthy subjects; read-out: Ceoi Median
Excerpt: […]
RESULT TYPE: concentration at 9 h (ng/mL)
Give your result in ng/mL as a bare value.

Using the record for COC(=O)N1CCC[C@H](NS(C)(=O)=O)[C@@H]1CO[C@H]1CC[C@@H](c2ccccc2)CC1 , report its concentration at 9 h.
221

====

Assay: Single dose PK in healthy subjects (Cohorts 1, 2, S1 and S2), plasma
Format: in vivo, human
Conditions: human, plasma, iv, 240 mg, 240 mg single IV infusion; 6 hr; read-out: Plasma Concentration of Cmpd A, Q3
RESULT TYPE: concentration at 6 h
Give the figure together with its unit, number first.

Report concentration at 6 h for COC(=O)N1CCC[C@H](NS(C)(=O)=O)[C@@H]1CO[C@H]1CC[C@@H](c2ccccc2)CC1 please.
514 ng/mL

====

Assay: Multiple-dose PK of intravenous Compound A in patients with NT1 (Cohorts B1, B2), plasma
Format: in vivo, human
Conditions: human, plasma, intravenous, 11 mg; Day 1; read-out: Cmax, Mean
RESULT TYPE: Cmax (ng/mL)
Please respond with the number in ng/mL and leave the unit unwritten.

Which Cmax value belongs to COC(=O)N1CCC[C@H](NS(C)(=O)=O)[C@@H]1CO[C@H]1CC[C@@H](c2ccccc2)CC1 [Compound A] ?
18.3

====

Test: Single dose PK in healthy subjects (Cohorts 1, 2, S1 and S2), plasma
Type: in vivo, human
Conditions: human, plasma, intravenous, 180 mg; 2 hr; read-out: Plasma concentration, Maximum
RESULT TYPE: concentration at 2 h
Form field: result (number plus unit)

Item COC(=O)N1CCC[C@H](NS(C)(=O)=O)[C@@H]1CO[C@H]1CC[C@@H](c2ccccc2)CC1 [Compound A] has what recorded concentration at 2 h?
341 ng/mL

====

Test: Single dose PK in healthy subjects (Cohorts 1, 2, S1 and S2), plasma
Type: in vivo, human
Settings: human, plasma, intravenous, 56 mg; 1 hr; read-out: Plasma concentration, Mean
RESULT TYPE: concentration at 1 h
Please provide the amount together with its unit, number first.

Reported concentration at 1 h, molecule COC(=O)N1CCC[C@H](NS(C)(=O)=O)[C@@H]1CO[C@H]1CC[C@@H](c2ccccc2)CC1 [Compound A] : ____
81.2 ng/mL
